Here the recorded Ipomoea, % damage is given for each entry.
Test system: Ipomoea
Assay: Post-emergence test/greenhouse
Assay type: in vivo
Conditions: 60 g ai./ha, rated after three weeks vs untreated control
Measurement type: Ipomoea, % damage (%)

>  <Smiles string>
CCOc1nn(C(=O)NS(=O)(=O)c2c(SCC)cccc2C(F)(F)F)c(=O)n1C

>  <Result units>
%

>  <Numeric result>
90

$$$$
>  <Smiles string>
CCOc1nn(C(=O)NS(=O)(=O)c2c(C)cccc2SC)c(=O)n1C

>  <Result units>
%

>  <Numeric result>
90

$$$$
>  <Smiles string>
CCSc1cccc(OC(F)(F)F)c1S(=O)(=O)NC(=O)n1nc(OC)n(C)c1=O

>  <Result units>
%

>  <Numeric result>
90

$$$$
>  <Smiles string>
CCc1nn(C(=O)NS(=O)(=O)c2c(C)cccc2SC)c(=O)n1C

>  <Result units>
%

>  <Numeric result>
90

$$$$
>  <Smiles string>
CCSc1cccc(C(F)(F)F)c1S(=O)(=O)NC(=O)n1nc(OC)n(C)c1=O

>  <Result units>
%

>  <Numeric result>
90

$$$$
>  <Smiles string>
CCOc1nn(C(=O)NS(=O)(=O)c2c(SCC)cccc2SCC)c(=O)n1C

>  <Result units>
%

>  <Numeric result>
95

$$$$
>  <Smiles string>
CCSc1cccc(OC(F)(F)F)c1S(=O)(=O)NC(=O)n1nc(CC)n(C)c1=O

>  <Result units>
%

>  <Numeric result>
80

$$$$
>  <Smiles string>
CCSc1cccc(SCC)c1S(=O)(=O)NC(=O)n1nc(CC)n(C)c1=O

>  <Result units>
%

>  <Numeric result>
95

$$$$

* * *

System: Sorghum
Assay: Pre-emergence test/greenhouse
Type: in vivo
Conditions: 60 g ai./ha, after three weeks
Measurement type: % damage, Sorghum

>  <Compound>
CCOc1nn(C(=O)NS(=O)(=O)c2c(OC(F)(F)F)cccc2SC)c(=O)n1C [Example 35]

>  <Result>
90%

$$$$
>  <Compound>
CCc1nn(C(=O)NS(=O)(=O)c2c(SC)cccc2C(F)(F)F)c(=O)n1C [Example 63]

>  <Result>
100%

$$$$
>  <Compound>
CSc1cccc(C(F)(F)F)c1S(=O)(=O)NC(=O)n1nc(SC)n(C)c1=O [Example 62]

>  <Result>
90%

$$$$
>  <Compound>
COc1cccc(SC)c1S(=O)(=O)NC(=O)n1nc(OC)n(C)c1=O [Example 21]

>  <Result>
100%

$$$$
>  <Compound>
CCc1nn(C(=O)NS(=O)(=O)c2c(OC(F)(F)F)cccc2SC)c(=O)n1C [Example 34]

>  <Result>
90%

$$$$
>  <Compound>
CCOc1nn(C(=O)NS(=O)(=O)c2c(OC)cccc2SC)c(=O)n1C [Example 20]

>  <Result>
100%

$$$$
>  <Compound>
CCSc1cccc(OC)c1S(=O)(=O)NC(=O)n1nc(OC)n(C)c1=O [Example 30]

>  <Result>
95%

$$$$

* * *

System: Alopecurus
Test: Pre-emergence test/greenhouse
Assay type: in vivo
Details: 125 g ai./ha, after three weeks
Experimental: Pre-emergence Test Solvent: 5 parts by weight of acetone Emulsifier: 1 part by weight of alkylaryl polyglycol ether To produce a suitable preparation of active compound, 1 part by weight of active compound is mixed with the stated amount of solvent, the stated amount of emulsifier is added and the concentrate is diluted with water to the desired concentration. Seeds of the test plants are sown in normal soil. […]

>  <Smiles string>
CCSc1cccc(OC(F)(F)F)c1S(=O)(=O)NC(=O)n1nc(OC)n(C)c1=O

>  <% damage, Alopecurus (%)>
100

$$$$
>  <Smiles string>
CCSc1cccc(OC)c1S(=O)(=O)NC(=O)n1nc(CC)n(C)c1=O

>  <% damage, Alopecurus (%)>
100

$$$$
>  <Smiles string>
CCOc1nn(C(=O)NS(=O)(=O)c2c(OC)cccc2SCC)c(=O)n1C

>  <% damage, Alopecurus (%)>
100

$$$$
>  <Smiles string>
CCOc1nn(C(=O)NS(=O)(=O)c2c(OC(F)(F)F)cccc2SCC)c(=O)n1C

>  <% damage, Alopecurus (%)>
100

$$$$
>  <Smiles string>
CCSc1cccc(C(F)(F)F)c1S(=O)(=O)NC(=O)n1nc(OC)n(C)c1=O

>  <% damage, Alopecurus (%)>
90

$$$$
>  <Smiles string>
CCOc1nn(C(=O)NS(=O)(=O)c2c(SCC)cccc2C(F)(F)F)c(=O)n1C

>  <% damage, Alopecurus (%)>
100

$$$$
>  <Smiles string>
CCSc1cccc(OC(F)(F)F)c1S(=O)(=O)NC(=O)n1nc(SC)n(C)c1=O

>  <% damage, Alopecurus (%)>
100

$$$$
>  <Smiles string>
COc1cccc(SCCF)c1S(=O)(=O)NC(=O)n1nc(OC)n(C)c1=O

>  <% damage, Alopecurus (%)>
100

$$$$
>  <Smiles string>
CCSc1cccc(C(F)(F)F)c1S(=O)(=O)NC(=O)n1nc(SC)n(C)c1=O

>  <% damage, Alopecurus (%)>
100

$$$$
>  <Smiles string>
COc1cccc(SC(C)C)c1S(=O)(=O)NC(=O)n1nc(OC)n(C)c1=O

>  <% damage, Alopecurus (%)>
95

$$$$
>  <Smiles string>
CCOc1nn(C(=O)NS(=O)(=O)c2c(OC)cccc2SCCF)c(=O)n1C

>  <% damage, Alopecurus (%)>
100

$$$$
>  <Smiles string>
CCc1nn(C(=O)NS(=O)(=O)c2c(OC)cccc2SC)c(=O)n1C

>  <% damage, Alopecurus (%)>
100

$$$$
